# TARGET DESC: Schisto B 2 (Schistosoma mansoni, UniProt Q95PM1)
# Sequence (Q95PM1 entry or part of it): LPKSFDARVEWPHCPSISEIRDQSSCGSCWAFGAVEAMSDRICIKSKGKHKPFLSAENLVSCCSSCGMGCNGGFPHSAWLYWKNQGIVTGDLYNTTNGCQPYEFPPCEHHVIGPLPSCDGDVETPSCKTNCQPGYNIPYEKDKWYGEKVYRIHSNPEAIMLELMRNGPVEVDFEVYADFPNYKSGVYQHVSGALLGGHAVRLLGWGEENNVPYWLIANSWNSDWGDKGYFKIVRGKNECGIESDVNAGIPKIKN
VALUE TYPE: Ki (nM)
Numbers only, in nM.

[
  {
    "MOLECULE": "CC(C)CC(NC(=O)c1cc2ccccc2o1)C(=O)N[C@@H]1CCCN(S(=O)(=O)c2ccc(F)cc2)CC1=O (stereo partly drawn)",
    "Ki [nM]": 120
  },
  {
    "MOLECULE": "COc1cccc(S(=O)(=O)N2CCC[C@H](NC(=O)[C@H](CC(C)C)NC(=O)c3oc4ccccc4c3C)C(=O)C2)c1",
    "Ki [nM]": 230
  }
]

Here are 4 molecules. What values of Ki were reported for them?
1. CC(C)C[C@H](NC(=O)c1ccc2ccccc2n1)C(=O)N[C@H]1CCCN(S(=O)(=O)c2ccc(F)cc2)CC1=O
2. O=C(N[C@@H](Cc1ccc2ccccc2c1)C(=O)NC1CCCN(S(=O)(=O)c2ccccn2)CC1=O)c1cccc2ccccc12 (stereo partly drawn) [Example 175]
3. O=C(N[C@@H](Cc1ccc2ccccc2c1)C(=O)NC1CCCN(S(=O)(=O)c2ccccn2)CC1=O)c1cccc2ccccc12 (single isomer, unassigned) [Example 188]
4. Cc1c(C(=O)N[C@@H](CC(C)C)C(=O)N[C@H]2CCCN(S(=O)(=O)c3cccc(Cl)c3)CC2=O)oc2ccccc12

Reply text:
[230, 21, 22, 71]

###

For each of the compounds below, state its Ki.
# TARGET DESC: Rhodazain (Trypanosoma brucei rhodesiense)
# Sequence (Q95PM0 entry or part of it): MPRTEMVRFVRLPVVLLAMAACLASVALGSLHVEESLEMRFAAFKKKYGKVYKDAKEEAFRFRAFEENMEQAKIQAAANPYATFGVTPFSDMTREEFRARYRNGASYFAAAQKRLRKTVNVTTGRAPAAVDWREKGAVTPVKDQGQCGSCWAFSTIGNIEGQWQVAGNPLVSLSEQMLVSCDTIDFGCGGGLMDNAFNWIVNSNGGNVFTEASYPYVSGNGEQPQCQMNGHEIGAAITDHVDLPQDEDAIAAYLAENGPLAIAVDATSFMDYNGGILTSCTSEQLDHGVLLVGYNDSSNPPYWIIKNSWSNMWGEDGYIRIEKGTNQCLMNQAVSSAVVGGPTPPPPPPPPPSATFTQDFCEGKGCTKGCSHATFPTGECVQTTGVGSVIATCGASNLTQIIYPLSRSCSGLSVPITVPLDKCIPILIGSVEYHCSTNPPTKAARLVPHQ
# METHOD DESCRIPTION: Cysteine protease inhibition, progress curve method, rhodazain
# Type: biochemical, Trypanosoma brucei rhodesiensi
# CONDITION DESCRIPTION: Rhodazain Ki (nM), 10 uM Cbz-Leu-Arg-AMC, 100 mM Na acetate pH 5.5, 5 mM cysteine
Please format your answer as a value with the unit trailing.

[
  {
    "COMPOUND": "COc1ccc2oc(C(=O)N[C@H](CC(C)C)C(=O)N[C@@H]3CCCN(S(=O)(=O)c4ncccc4C)CC3=O)cc2c1 (stereo in doubt) [Example 162]",
    "VALUE": "2.5 nM"
  },
  {
    "COMPOUND": "CC(C)C[C@@H](NC(=O)c1cc2sccc2s1)C(=O)N[C@@H]1CCCN(S(=O)(=O)c2cccc[n+]2[O-])CC1=O",
    "VALUE": "5.3 nM"
  },
  {
    "COMPOUND": "Cc1oc(-c2ccccc2)nc1C(=O)N[C@@H](CC(C)C)C(=O)NC1CCCN(S(=O)(=O)c2ccccn2)CC1=O (stereo partly drawn)",
    "VALUE": "5.8 nM"
  },
  {
    "COMPOUND": "O=C(N[C@@H](Cc1ccccc1)C(=O)NC1CCCN(S(=O)(=O)c2ccccn2)CC1=O)c1cc2ccccc2o1 (stereo partly drawn)",
    "VALUE": "3.2 nM"
  },
  {
    "COMPOUND": "Cc1cccnc1S(=O)(=O)N1CCC[C@@H](NC(=O)[C@@H](CC(C)C)NC(=O)c2cc3sccc3s2)C(=O)C1",
    "VALUE": "6.7 nM"
  }
]

Inquiry: Can you share its Ki? I mean this compound: CC(C)C[C@@H](NC(=O)c1cc2ccccc2o1)C(=O)N[C@@H]1CCCN(S(=O)(=O)c2cccc[n+]2[O-])CC1=O [Example 45]
Reply text: 2.8 nM
